Test system: MOLM-14
Experiment Description: Antiproliferative activity against human MOLM14 cell spheroids
Format: functional, cell-based
Observation Type: pIC50
FYI, pIC50 means -log10 of a concentration in mol per litre.

Past entries and their recorded results:
CC(C)[C@H](C1CNC1)N1CC2(CCN(c3ncnc4sc(CC(F)(F)F)cc34)C2)C1; 6.07
O=C([C@@H]1CC2(CC2)CN1)N1CC2(CCN(c3ncnc4sc(CC(F)(F)F)cc34)C2)C1; 4.95

I'd like to know its pIC50. The compound in question is FC(F)(F)Cc1cc2c(N3CCCC4(CCN(Cc5ccccc5)C4)C3)ncnc2s1 (stereo unspecified)
5.11

Repeat for the following compound: FC(F)(F)Cc1cc2c(N3CCC4(CN(Cc5ccccc5)C4)C3)ncnc2s1
5.34

Repeat for the following compound: CC(C)[C@@H](C1CNC1)N1CC2(CCN(c3ncnc4sc(CC(F)(F)F)cc34)C2)C1
4.99
